These data points were gathered from patent US6159961A.

Experiment: Urinary excretion, bile excretion and plasma level after oral administration to rats
Type: in vivo, Male JCL SD rats
Settings: rat, 20 mg/kg, fasted, 0-24 hours, bile, read-out: Biliary recovery in 24 hours
metric.name: dose excreted at 24 h (%)

[
  {
    "molecule": "Nc1nc(/C(=N/O)C(=O)N[C@@H]2C(=O)N3C(C(=O)O)=C(SCc4cn[nH]c4)CS[C@H]23)c(Cl)s1 [(1)]",
    "dose excreted at 24 h (%)": 29
  }
]

[P] Nc1nc(/C(=N/O)C(=O)N[C@@H]2C(=O)N3C(C(=O)O)=C(SCc4cnn[nH]4)CS[C@H]23)c(Cl)s1 [(3)]
[Q] Nc1nc(/C(=N/O)C(=O)N[C@@H]2C(=O)N3C(C(=O)O)=C(SCc4cccnc4)CS[C@H]23)c(Cl)s1 [(2)]
Prompt line: Lab note: check whether P or Q has the lower measured dose excreted at 24 h. Respond with the label that goes with your answer.
Response line: Q
(Q: 19.6%, P: 37.5%)

====

Test: Urinary excretion, bile excretion and plasma level after oral administration to rats
Assay type: in vivo, Male JCL SD rats
Conditions: rat, 20 mg/kg, fasted, 0-24 hours, urine, read-out: Urinary recovery in 24 hours
Procedure: Male JCL SD atrain rats (age, 6 weeks) were used. Test compound was suspended in 0.5% methyl cellurose solution. The rats were atarved overnight before dosing with 20 mg /kg. […] Concentrations of test compounds were measured by the disc-plate diffusion method using E. coli ATCC 39188 as test organism and nutrient agar (Difco) as the test medium. […] The plate were incubated at 37° C. for 18 hours and the zone of inhibition were mesured and the recovery rate was calculated by comparing with the standard.
metric.name: dose excreted at 24 h (%)

[P] Nc1nc(/C(=N/O)C(=O)N[C@@H]2C(=O)N3C(C(=O)O)=C(SCc4cnn[nH]4)CS[C@H]23)c(Cl)s1 [(3)]
[Q] Nc1nc(/C(=N/O)C(=O)N[C@@H]2C(=O)N3C(C(=O)O)=C(SCc4cn[nH]c4)CS[C@H]23)c(Cl)s1 [(1)]
[R] Nc1nc(/C(=N/O)C(=O)N[C@@H]2C(=O)N3C(C(=O)O)=C(SCc4cccnc4)CS[C@H]23)c(Cl)s1 [(2)]
Prompt line: # rank_down: sort by dose excreted at 24 h, max first A ranking is expressed here by listing the labels in the requested order.
Response line: Q, R, P
(Q: 39.7%, R: 17%, P: 7.62%)
